Origin of the recorded values: ChEMBL document CHEMBL5260850

experiment_summary: Clearance in dog at 0.5 mg/kg, iv
Format: ADME, organism-based, Canis lupus familiaris
condition: in vivo
measured_quantity: clearance

Q. If you can, please state the reported clearance value of "CC(C)(O)[C@H]1CC[C@H](NC(=O)c2cnc3nc(C4CC4)ccc3c2)CC1" .
A. 1.9 mL/min/kg

----------
experiment_summary: Apparent permeability, Papp of the compound at pH 7.4 incubated for 3 hrs by AMP based liquid chromatography
Format: ADME
condition: not told
So I've got a bunch of molecules here, and I need their Papp at 3 h values.
Answers are plain numbers, in nm/s.

Completed entries (count: 4):
[
  {
    "compound_string": "C[C@]1(O)C[C@@H](NC(=O)c2cnc3cc(N4CCC4)ncc3c2)C1",
    "Papp at 3 h (nm/s)": 38
  },
  {
    "compound_string": "CC(C)(O)[C@H]1CC[C@H](NC(=O)c2cnc3nc(N4CCC4)ccc3c2)CC1",
    "Papp at 3 h (nm/s)": 23
  },
  {
    "compound_string": "O=C(N[C@H]1CC[C@H](N[C@H](CO)C(F)(F)F)CC1)c1cnc2cc(C3CC3)ncc2c1",
    "Papp at 3 h (nm/s)": 180
  },
  {
    "compound_string": "C[C@H]1CCN1c1cc2ncc(C(=O)N[C@H]3CCNC3=O)cc2cn1",
    "Papp at 3 h (nm/s)": 14
  }
]

Now for the molecule whose Papp at 3 h we want.
Q. Reported Papp at 3 h for "CC(C)(O)[C@H]1CC[C@H](NC(=O)c2cnc3cc(C4CC4)ncc3c2)CC1" : what is it?
A. 165

----------
target_or_test_system: Hematopoietic prostaglandin D synthase (Rattus norvegicus)
Sequence (O35543 whole entry): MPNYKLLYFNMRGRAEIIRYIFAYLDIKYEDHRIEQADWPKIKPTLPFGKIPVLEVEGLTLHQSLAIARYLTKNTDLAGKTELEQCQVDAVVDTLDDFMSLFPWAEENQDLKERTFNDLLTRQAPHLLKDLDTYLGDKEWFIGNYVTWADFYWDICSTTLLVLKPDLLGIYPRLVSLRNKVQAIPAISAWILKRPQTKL
experiment_summary: Inhibition of H-PGDS in rat RBL cells assessed as reduction in A23187-induced PGD2 production pretreated for 30 mins followed by A23187 addition for 30 mins by RapidFire Mass spectrometry
Format: cell-based
Mark 1 only for EC50 values smaller than 0.3 µM; exact matches and larger values are 0.

[
  {
    "compound_string": "COc1ccc2cc(C(=O)N[C@H]3CC[C@H](C(C)(C)O)CC3)cnc2n1",
    "target_or_test_system": "Hematopoietic prostaglandin D synthase (Rattus norvegicus)",
    "group_label": 1
  },
  {
    "compound_string": "C[C@]1(O)C[C@@H](NC(=O)c2cnc3cc(C4CC4)ncc3c2)C1",
    "target_or_test_system": "Hematopoietic prostaglandin D synthase (Rattus norvegicus)",
    "group_label": 0
  },
  {
    "compound_string": "O=C(N[C@H]1CCNC1=O)c1cnc2cc(C3CC3)ncc2c1",
    "target_or_test_system": "Hematopoietic prostaglandin D synthase (Rattus norvegicus)",
    "group_label": 1
  },
  {
    "compound_string": "CC(C)(O)[C@H]1CC[C@H](NC(=O)c2cnc3nc(C4CC4)c(Cl)cc3c2)CC1",
    "target_or_test_system": "Hematopoietic prostaglandin D synthase (Rattus norvegicus)",
    "group_label": 1
  },
  {
    "compound_string": "C[C@]1(O)C[C@@H](NC(=O)c2cnc3cc(N4CCC4)ncc3c2)C1",
    "target_or_test_system": "Hematopoietic prostaglandin D synthase (Rattus norvegicus)",
    "group_label": 0
  },
  {
    "compound_string": "COc1ncc2cc(C(=O)N[C@H]3CC[C@H](C(C)(C)O)CC3)cnc2n1",
    "target_or_test_system": "Hematopoietic prostaglandin D synthase (Rattus norvegicus)",
    "group_label": 0
  },
  {
    "compound_string": "CC(C)(O)[C@H]1CC[C@H](NC(=O)c2cnc3cc(N4CCC4)ncc3c2)CC1",
    "target_or_test_system": "Hematopoietic prostaglandin D synthase (Rattus norvegicus)",
    "group_label": 1
  },
  {
    "compound_string": "C[C@@H]1CCN1c1ccc2cc(C(=O)N[C@H]3CC[C@H](C(C)(C)O)CC3)cnc2n1",
    "target_or_test_system": "Hematopoietic prostaglandin D synthase (Rattus norvegicus)",
    "group_label": 0
  },
  {
    "compound_string": "COc1ccc2cc(C(=O)N[C@H]3CC[C@H](C(C)(C)O)CC3)ccc2c1",
    "target_or_test_system": "Hematopoietic prostaglandin D synthase (Rattus norvegicus)",
    "group_label": 0
  },
  {
    "compound_string": "COc1nc2ncc(C(=O)N[C@H]3CC[C@H](C(C)(C)O)CC3)cc2cc1Cl",
    "target_or_test_system": "Hematopoietic prostaglandin D synthase (Rattus norvegicus)",
    "group_label": 1
  }
]

Q. is_below(EC50, 0.3 µM) for "O=C(N[C@H]1CCNC1=O)c1cnc2nc(C3CC3)ccc2c1" ?
A. 0

Q. Determine if "CC(C)(O)[C@]12C[C@@](NC(=O)c3cnc4cc(C5CC5)ncc4c3)(C1)C2" shows EC50 strictly lower than 0.3 µM.
A. 1
